Assay: in vivo
Conditions: CD1, mouse, po, 1 mg/kg
resultType: Tmax

compoundstring=CC(C)(C)c1cc(C=C(C#N)C#N)cc(C(C)(C)C)c1O reportedmeasurement="1 h"

---

% inhibition (SFV screen): recorded values
Test system: SFV
Experiment: microbe, parasite or virus in culture
Format: cell-based, Semliki Forest virus
Conditions: 10 µM
resultType: % inhibition (SFV screen) (%)

compound="C=CCN1CC[C@]23c4c5ccc(O)c4O[C@@H]2/C(=N/N=C2\\CC[C@@]4(O)C6Cc7ccc(O)c8c7[C@@]4(CCN6CC=C)[C@@H]2O8)CC[C@@]3(O)C1C5.Cl.Cl [Naloxonazine dihydrochloride]" resulttype="% inhibition (SFV screen)" unitinfo=% reportedmeasurement=70.80
compound="COc1ccc(C[C@@H](C)NC[C@H](O)c2ccc(O)c(NC=O)c2)cc1.COc1ccc(C[C@@H](C)NC[C@H](O)c2ccc(O)c(NC=O)c2)cc1.O=C(O)/C=C/C(=O)O [Formoterol fumarate]" resulttype="% inhibition (SFV screen)" unitinfo=% reportedmeasurement=86.74
compound="Cl.Cn1c(CCCC(=O)O)nc2cc(N(CCCl)CCCl)ccc21 [Bendamustine hydrochloride]" resulttype="% inhibition (SFV screen)" unitinfo=% reportedmeasurement=104.91
